# credit: patent US20240294661A1

- measured.target: membrane-bound tissue factor (TF) on cells (human, UniProt P13726 33-295)
- measurement.protocol: cell-based or functional assay
property.name: % kill at 10 µg/mL, HPAF-II cells, ADC killing assay (%)
Answer with a number only, understood to be in %.

Need % kill at 10 µg/mL, HPAF-II cells, ADC killing assay, item HuMab-TF-111-vcMMAE (antibody, IgG1, V domains shown, vcMMAE drug-linker alkylated to cysteines of the reduced antibody (positions not given), DAR 4.3 by RP-HPLC, 4.1 by HIC) VH: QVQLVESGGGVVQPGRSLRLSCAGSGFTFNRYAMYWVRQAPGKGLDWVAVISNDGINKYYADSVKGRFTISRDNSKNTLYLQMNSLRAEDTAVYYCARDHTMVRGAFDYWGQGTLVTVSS VL: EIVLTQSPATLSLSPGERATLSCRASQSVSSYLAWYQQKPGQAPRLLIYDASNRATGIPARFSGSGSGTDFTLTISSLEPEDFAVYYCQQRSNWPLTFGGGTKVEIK
73

How about HuMab-TF-011-mcMMAF (antibody, IgG1, V domains shown, mcMMAF drug-linker alkylated to cysteines of the reduced antibody (positions not given), DAR 3.9 by RP-HPLC, 4.1 by HIC) VH: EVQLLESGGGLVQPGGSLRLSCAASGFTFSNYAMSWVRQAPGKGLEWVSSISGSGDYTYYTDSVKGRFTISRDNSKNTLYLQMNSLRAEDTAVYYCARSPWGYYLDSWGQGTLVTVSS VL: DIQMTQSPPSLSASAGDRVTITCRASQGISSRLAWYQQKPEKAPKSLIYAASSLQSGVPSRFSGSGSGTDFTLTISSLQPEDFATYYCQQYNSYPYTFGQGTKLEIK ?
72

Would you kindly repeat that for HuMab-TF-098-vcMMAE (antibody, IgG1, V domains shown, vcMMAE drug-linker alkylated to cysteines of the reduced antibody (positions not given), DAR 3.9 by RP-HPLC, 3.7 by HIC) VH: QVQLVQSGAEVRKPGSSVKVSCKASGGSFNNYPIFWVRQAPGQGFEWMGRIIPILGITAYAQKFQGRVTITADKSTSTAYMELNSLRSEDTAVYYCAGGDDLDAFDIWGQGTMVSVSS VL: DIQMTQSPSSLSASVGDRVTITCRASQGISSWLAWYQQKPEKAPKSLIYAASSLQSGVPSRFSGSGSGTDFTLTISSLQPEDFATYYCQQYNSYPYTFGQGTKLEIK ?
71
